# TARGET SYSTEM: acetylcholine muscarinic M1 receptor (Homo sapiens, UniProt P11229)
# Construct: expressed in transfected cells; host or cells: CHOnfat (CHO cells, Geneticin selection)
# Sequence (P11229 whole entry): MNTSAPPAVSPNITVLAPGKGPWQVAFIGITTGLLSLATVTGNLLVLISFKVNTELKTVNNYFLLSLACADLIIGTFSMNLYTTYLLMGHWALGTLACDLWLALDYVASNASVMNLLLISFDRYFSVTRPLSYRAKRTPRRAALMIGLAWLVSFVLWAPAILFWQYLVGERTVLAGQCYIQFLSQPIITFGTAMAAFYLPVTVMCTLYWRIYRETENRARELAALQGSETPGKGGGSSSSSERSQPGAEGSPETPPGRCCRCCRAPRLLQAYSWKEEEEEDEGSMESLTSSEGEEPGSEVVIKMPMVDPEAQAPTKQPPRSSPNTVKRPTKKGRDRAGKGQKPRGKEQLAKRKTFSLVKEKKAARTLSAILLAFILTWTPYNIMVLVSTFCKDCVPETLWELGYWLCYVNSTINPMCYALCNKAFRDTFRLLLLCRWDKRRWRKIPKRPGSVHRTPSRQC
# EXPERIMENTAL DETAILS: muscarinic FLIPR assay: potentiation of acetylcholine (EC20)-stimulated intracellular Ca2+ in CHOnfat/hM1 cells
# Format: cell-based
RECORDED METRIC: pEC50
Answers are plain numbers, as −log10 of the molar value.

In the examples that follow, each entry is paired with its recorded pEC50.
* COc1ccc(-c2ccc(Cn3cc(C(=O)O)c(=O)c4c3CCCC4O)cc2)cn1 (centres unmarked) [Example 53] | 6.49
* COc1ccccc1-c1ccc(Cn2cc(C(=O)O)c(=O)c3c2CCCC3O)cc1 (racemic) [Example 27] | 5.50

Hello, I would appreciate it if you could give pEC50 for each entry below.
1. O=C(O)c1cn(Cc2ccc(-c3ccccc3)cc2)c2c(c1=O)CCC2 [Example 1]
2. CCCCNC1CCCc2c1c(=O)c(C(=O)O)cn2Cc1ccc(-c2ccccc2)cc1 (centres unmarked) [Example 71]
3. N#Cc1ccc(-c2ccc(Cn3cc(C(=O)O)c(=O)c4c3CCCC4O)cc2)cc1 (centres unmarked) [Example 41]
4. COC1CCCc2c1c(=O)c(C(=O)O)cn2Cc1ccc(-c2ccccc2)cc1 (racemic) [Example 62]
5. O=C(O)c1cn(Cc2ccc(-c3ccccc3)cc2)c2c(c1=O)C(N1CCCC1)CCC2 (centres unmarked) [Example 73]
6. CCC1(O)CCCc2c1c(=O)c(C(=O)O)cn2Cc1ccc(-c2ccccc2)cc1 (racemic) [Example 68]

6.09
5.82
6.50
5.96
5.39
5.04

###

# TARGET SYSTEM: acetylcholine muscarinic M1 receptor (Homo sapiens, UniProt P11229)
# Construct: expressed in transfected cells; host or cells: CHOnfat (CHO cells, Geneticin selection)
# EXPERIMENTAL DETAILS: muscarinic FLIPR assay: potentiation of acetylcholine (EC20)-stimulated intracellular Ca2+ in CHOnfat/hM1 cells
# Type: cell-based
Would you kindly list EC50 for each of these compounds?
Give bare numbers, in µM.

* Cn1ccc2cc(-c3ccc(Cn4cc(C(=O)O)c(=O)c5c4CCCC5O)nc3)ccc21 (stereo not shown) | 0.199
* CNC1CCCc2c1c(=O)c(C(=O)O)cn2Cc1ccc(-c2ccccc2)cc1 (stereo not shown) | 8.37
* O=C(O)c1cn(C/C=C/c2ccccc2F)c2c(c1=O)C(=O)CCC2 | 64

Read the next record carefully.
For the compound shown here, O=C(O)c1cn(Cc2ccc(-c3ccccc3)cc2)c2c(c1=O)C(NCc1ccccc1)CCC2 (stereo not shown) , give the reported EC50. 2.2

###

# TARGET SYSTEM: acetylcholine muscarinic M1 receptor (Homo sapiens)
# Construct: expressed in transfected cells; host or cells: CHOnfat (CHO cells, Geneticin selection)
# EXPERIMENTAL DETAILS: muscarinic FLIPR assay: potentiation of acetylcholine (EC20)-stimulated intracellular Ca2+ in CHOnfat/hM1 cells
# Assay type: cell-based
# RUN PARAMETERS: CHOnfat/hM1 cells, FLIPR, 4 min preincubation, then EC20 acetylcholine (3 nM final); read-out: IP Value (inflection point)
# Protocol: The assay studies the effect of one or several concentrations of test compounds on basal or acetylcholine-stimulated Ca^2+ levels using FLIPR. Compounds are prepared and subjected to a preincubation period of 4 min. […] The intracellular Ca^2+ level of each sample is measured and compared to an acetylcholine control to determine any modulatory activity. […] The inflection point is calculated from the FLIPR values and is a measure of activity.
RECORDED METRIC: pEC50
Give bare numbers, as −log10 of the molar value.

For the compound shown here, `O=C(O)c1cn(Cc2ccc(-c3ccccc3)cc2)c2c(c1=O)C(=O)CCC2` , give the reported pEC50. 6.09

Value source: patent US8022215B2
